- target_entity: Androgen receptor (Rattus norvegicus) (UniProt P15207)
- test_parameters: Prostate gland
Calls of active or inactive are those of the source. The calls are words filed in the database; no cut-off is given here.
observed_property: Increase

Take a look at these entries with their results.
> print(dat)
                                   compound  recorded.result
1  C#C[C@]1(O)CC[C@H]2[C@@H]3CC[C@H]4Cc5nn(S(C)(=O)=O)cc5C[C@]4(C)[C@H]3CC[C@@]21C (stereo in doubt; 1)         inactive
2  C#C[C@]1(O)CCC2C3CC[C@H]4Cc5c(c[nH][n+]5S(C)(=O)=O)C[C@]4(C)C3CC[C@@]21C (some centres not stated)         inactive
3  CC[C@]1(O)CCC2C3CC[C@H]4Cc5nn(S(C)(=O)=O)cc5C[C@]4(C)C3CC[C@@]21C (some centres not stated)         inactive
4  C#C[C@]1(O)CCC2C3CCC4=C(C)c5nn(S(C)(=O)=O)cc5C[C@]4(C)C3CC[C@@]21C (some centres not stated)         inactive
5  CC1=C2CCC3C(CC[C@@]4(C)C3CC[C@]4(C)O)[C@@]2(C)Cc2cn(S(C)(=O)=O)nc21 (some centres not stated)         inactive

## Input Looking for the measured Increase of C[C@]12Cc3cn(S(C)(=O)=O)nc3C=C1CCC1C2CC[C@@]2(C)C1CC[C@]2(C)O (some centres not stated) , can you help?
## Output inactive

## Input Next compound: C=C[C@]1(O)CCC2C3CC[C@H]4Cc5nn(S(C)(=O)=O)cc5C[C@]4(C)C3CC[C@@]21C (some centres not stated)
## Output inactive

## Input Do the same for C#C[C@]1(O)CCC2C3CCC4=Cc5nn(S(C)(=O)=O)cc5C[C@]4(C)C3CC[C@@]21C (some centres not stated) please
## Output inactive

## Input Now try C[C@]12CCC3C(CC[C@H]4Cc5nn(S(C)(=O)=O)cc5C[C@]34C)C1CCC2=O (some centres not stated) .
## Output inactive

----------
- target_entity: Androgen receptor (Rattus norvegicus) (UniProt P15207)
- Sequence (whole entry): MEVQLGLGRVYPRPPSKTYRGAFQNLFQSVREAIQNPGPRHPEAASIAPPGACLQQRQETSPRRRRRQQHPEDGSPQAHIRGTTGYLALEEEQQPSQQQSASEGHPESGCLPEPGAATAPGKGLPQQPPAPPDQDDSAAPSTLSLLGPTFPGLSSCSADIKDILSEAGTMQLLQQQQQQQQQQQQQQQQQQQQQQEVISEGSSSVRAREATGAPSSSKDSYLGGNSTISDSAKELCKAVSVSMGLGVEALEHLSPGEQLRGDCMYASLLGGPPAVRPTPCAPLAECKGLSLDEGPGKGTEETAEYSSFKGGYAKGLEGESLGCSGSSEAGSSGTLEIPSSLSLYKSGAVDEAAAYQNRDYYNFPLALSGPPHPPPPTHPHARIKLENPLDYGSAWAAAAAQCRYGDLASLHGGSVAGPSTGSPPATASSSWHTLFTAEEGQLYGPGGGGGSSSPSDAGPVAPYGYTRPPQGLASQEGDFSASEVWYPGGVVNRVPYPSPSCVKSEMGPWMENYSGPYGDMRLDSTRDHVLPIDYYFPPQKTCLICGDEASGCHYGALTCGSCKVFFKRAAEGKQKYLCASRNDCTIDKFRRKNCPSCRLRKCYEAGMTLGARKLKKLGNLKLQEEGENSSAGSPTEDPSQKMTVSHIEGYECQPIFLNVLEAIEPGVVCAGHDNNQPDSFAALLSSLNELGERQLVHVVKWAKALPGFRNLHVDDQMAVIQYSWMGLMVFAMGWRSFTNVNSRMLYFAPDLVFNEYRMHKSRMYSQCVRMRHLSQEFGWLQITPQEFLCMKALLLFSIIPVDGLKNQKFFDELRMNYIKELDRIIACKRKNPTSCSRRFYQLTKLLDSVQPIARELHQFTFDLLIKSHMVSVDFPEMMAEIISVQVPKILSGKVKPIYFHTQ
- test_parameters: Prostate gland
The source made the active and inactive calls. The calls are words filed in the database; no cut-off is given here.
observed_property: Increase

> print(dat)
                                   compound  observed.property  recorded.result
1  C[C@]1(O)CCC2C3CC[C@H]4Cc5nn(S(C)(=O)=O)cc5C[C@]4(C)C3CC[C@@]21C (stereo partly drawn)           Increase         inactive
2  CC(C)(O)C(=O)Nc1ccc([N+](=O)[O-])c(C(F)(F)F)c1 [HYDROXYFLUTAMIDE]           Increase         inactive
3  C#C[C@]1(O)CC[C@H]2[C@@H]3CC[C@H]4Cc5nn(S(C)(=O)=O)cc5C[C@]4(C)[C@H]3CC[C@@]21C (stereo in doubt; 28)           Increase         inactive
